system: PC-3; assay: Cytotoxicity against human PC3 cells after 72 hrs by sulforhodamine B assay; type: functional, cell-based; details: PC-3, 72 h
metric.name: pIC50
// pIC50 is dimensionless: -log10 of concentration (M)

// solved cases for pIC50 follow
INSERT INTO measurements (structure, numeric_value) VALUES
  ('CC[C@@]1(O)C(=O)OCc2c1cc1n(c2=O)Cc2c-1nc1ccccc1c2/C=N\OCCNC(=O)CCC[C@@H]1NC(=O)[C@@H](Cc2ccccc2)NC(=O)[C@H](CC(=O)O)NC(=O)CNC(=O)[C@H](CCCNC(=N)N)NC1=O', 4.82),
  ('CC[C@@]1(O)C(=O)OCc2c1cc1n(c2=O)Cc2c-1nc1ccccc1c2C=O', 6.89),
  ('CC[C@@]1(O)C(=O)OCc2c1cc1n(c2=O)Cc2c-1nc1ccccc1c2/C=N/NC(=O)COCCOCCOCC(=O)NCc1ccc(C[C@@H]2NC(=O)[C@@H](Cc3ccccc3)NC(=O)[C@H](CC(=O)O)NC(=O)CNC(=O)[C@H](CCCNC(=N)N)NC2=O)cc1', 6.66),
  ('CC[C@@]1(O)C(=O)OCc2c1cc1n(c2=O)Cc2c-1nc1ccccc1c2CCC=O', 6.92),
  ('CC[C@@]1(O)C(=O)OCc2c1cc1n(c2=O)Cc2c-1nc1ccccc1c2/C=N\OCCN', 6.44),
  ('CC[C@@]1(O)C(=O)OCc2c1cc1n(c2=O)Cc2c-1nc1ccccc1c2/C=N/OCCNC(=O)CCC(=O)NCc1ccc(C[C@@H]2NC(=O)[C@@H](Cc3ccccc3)NC(=O)[C@H](CC(=O)O)NC(=O)CNC(=O)[C@H](CCCNC(=N)N)NC2=O)cc1', 5.33);

Param item = CC[C@@]1(O)C(=O)OCc2c1cc1n(c2=O)Cc2c-1nc1ccccc1c2/C=N/OCCNC(=O)COCCOCCOCC(=O)NCc1ccc(C[C@@H]2NC(=O)[C@@H](Cc3ccccc3)NC(=O)[C@H](CC(=O)O)NC(=O)CNC(=O)[C@H](CCCN=C(N)N)NC2=O)cc1 ; retrieve measured pIC50.
4.57

# pIC50 lookup, item CC[C@@]1(O)C(=O)OCc2c1cc1n(c2=O)Cc2c-1nc1ccccc1c2CC/C=N/NC(=O)COCCOCCOCC(=O)NCc1ccc(C[C@@H]2NC(=O)[C@@H](Cc3ccccc3)NC(=O)[C@H](CC(=O)O)NC(=O)CNC(=O)[C@H](CCCNC(=N)N)NC2=O)cc1
6.38

---

Each item that follows carries a reported IC50.
target: Integrin alpha-V/beta-5 (Homo sapiens, UniProt P06756+P18084); assay: Inhibition of integrin alphaVbeta5 receptor-mediated adhesion of human A2780 cells to vitronectin after 1 hr by toluidine blue staining; type: cell-based
Sequence (P06756 31-889 limits assumed): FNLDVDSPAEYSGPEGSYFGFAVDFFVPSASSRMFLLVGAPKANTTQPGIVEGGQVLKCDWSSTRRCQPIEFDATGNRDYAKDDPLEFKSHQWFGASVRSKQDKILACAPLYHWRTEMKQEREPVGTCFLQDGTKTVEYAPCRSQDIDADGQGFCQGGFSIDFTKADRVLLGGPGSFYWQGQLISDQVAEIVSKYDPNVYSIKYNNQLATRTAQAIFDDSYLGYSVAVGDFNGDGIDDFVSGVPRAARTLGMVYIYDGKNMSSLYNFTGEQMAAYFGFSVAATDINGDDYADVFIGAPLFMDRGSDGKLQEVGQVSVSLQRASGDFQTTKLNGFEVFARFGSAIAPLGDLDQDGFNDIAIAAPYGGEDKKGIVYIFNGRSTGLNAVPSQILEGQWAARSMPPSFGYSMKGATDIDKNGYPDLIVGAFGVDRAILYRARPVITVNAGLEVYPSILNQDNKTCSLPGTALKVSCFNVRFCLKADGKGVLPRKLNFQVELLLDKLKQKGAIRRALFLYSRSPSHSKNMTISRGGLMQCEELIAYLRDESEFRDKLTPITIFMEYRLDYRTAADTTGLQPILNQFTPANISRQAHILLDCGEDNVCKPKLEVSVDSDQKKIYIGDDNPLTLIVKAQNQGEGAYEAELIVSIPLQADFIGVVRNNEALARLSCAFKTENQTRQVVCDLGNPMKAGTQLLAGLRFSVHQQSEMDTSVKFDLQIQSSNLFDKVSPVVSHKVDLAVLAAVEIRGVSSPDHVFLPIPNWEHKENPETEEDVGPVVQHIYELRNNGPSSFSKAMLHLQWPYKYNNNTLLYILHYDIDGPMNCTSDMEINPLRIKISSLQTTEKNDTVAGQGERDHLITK
Sequence (P06756 891-1048 limits assumed): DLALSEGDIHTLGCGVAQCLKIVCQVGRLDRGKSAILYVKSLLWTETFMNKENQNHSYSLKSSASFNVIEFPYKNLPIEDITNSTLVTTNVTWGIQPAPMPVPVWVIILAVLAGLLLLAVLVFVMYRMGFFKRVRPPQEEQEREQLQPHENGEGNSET
Sequence (P18084 24-799 limits assumed): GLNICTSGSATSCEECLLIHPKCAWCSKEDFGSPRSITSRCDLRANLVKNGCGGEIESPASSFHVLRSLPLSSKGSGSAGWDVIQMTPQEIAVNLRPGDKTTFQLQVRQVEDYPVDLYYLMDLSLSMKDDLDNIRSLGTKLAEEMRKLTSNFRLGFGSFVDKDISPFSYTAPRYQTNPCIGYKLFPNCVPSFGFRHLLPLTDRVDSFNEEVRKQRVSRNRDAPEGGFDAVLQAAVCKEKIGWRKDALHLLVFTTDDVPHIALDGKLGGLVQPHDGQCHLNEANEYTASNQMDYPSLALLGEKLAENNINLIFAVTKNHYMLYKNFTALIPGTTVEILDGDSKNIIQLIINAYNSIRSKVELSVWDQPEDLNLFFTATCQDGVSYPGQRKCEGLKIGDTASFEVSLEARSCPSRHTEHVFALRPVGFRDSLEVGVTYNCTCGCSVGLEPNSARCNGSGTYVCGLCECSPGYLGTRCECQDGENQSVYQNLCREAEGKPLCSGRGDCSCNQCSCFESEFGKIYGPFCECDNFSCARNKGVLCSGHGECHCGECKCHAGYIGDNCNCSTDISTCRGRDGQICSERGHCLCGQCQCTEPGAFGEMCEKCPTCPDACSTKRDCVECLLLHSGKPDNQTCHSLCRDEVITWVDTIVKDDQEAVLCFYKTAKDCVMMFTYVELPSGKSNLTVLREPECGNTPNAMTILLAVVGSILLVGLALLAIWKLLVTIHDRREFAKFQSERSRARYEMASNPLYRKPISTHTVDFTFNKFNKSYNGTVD
Give the value, in units of µM, as a plain number.

Example entries begin here.
INSERT INTO assay_data (structure, numeric_value) VALUES
  ('CC[C@@]1(O)C(=O)OCc2c1cc1n(c2=O)Cc2c-1nc1ccccc1c2/C=N/OCCNC(=O)COCCOCCOCC(=O)NCc1ccc(C[C@@H]2NC(=O)[C@@H](Cc3ccccc3)NC(=O)[C@H](CC(=O)O)NC(=O)CNC(=O)[C@H](CCCN=C(N)N)NC2=O)cc1', 1.8),
  ('CC[C@@]1(O)C(=O)OCc2c1cc1n(c2=O)Cc2c-1nc1ccccc1c2/C=N\OCCNC(=O)CCC[C@@H]1NC(=O)[C@@H](Cc2ccccc2)NC(=O)[C@H](CC(=O)O)NC(=O)CNC(=O)[C@H](CCCNC(=N)N)NC1=O', 3.1),
  ('CC[C@@]1(O)C(=O)OCc2c1cc1n(c2=O)Cc2c-1nc1ccccc1c2CC/C=N/NC(=O)COCCOCCOCC(=O)NCc1ccc(C[C@@H]2NC(=O)[C@@H](Cc3ccccc3)NC(=O)[C@H](CC(=O)O)NC(=O)CNC(=O)[C@H](CCCNC(=N)N)NC2=O)cc1', 12.9);

Find the recorded IC50 belonging to N=C(N)NCCC[C@@H]1NC(=O)[C@H](c2ccc(CNC(=O)COCCOCCOCC(=O)NN)cc2)NC(=O)[C@@H](Cc2ccccc2)NC(=O)[C@H](CC(=O)O)NC(=O)CNC1=O and report it.
11.8
